Reference for the values: the RNAGym collection of RNA variant scans (doi:10.1093/nar/gkz1192)

Collected self-cleavage values appear next to each entry.
B1: CPEB3 Ribozyme (parent)
chain: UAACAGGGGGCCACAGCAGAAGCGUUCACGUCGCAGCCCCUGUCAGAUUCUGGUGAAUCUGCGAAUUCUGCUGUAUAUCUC

- Variants of: B1
- method.description: self-cleavage, relative activity (ratio to wild type); higher = more cleavage; in vitro, sequencing

mutant.label	self-cleavage
G19U A64U	0.15
A2C G61A	0.48
C40A U66C	0.18
G70A U78C	0.8
C40U U80C	0.76
A21G G55A	0.42
C38U U49C	0.34
A13G C29G	0.11
G6A U48C	0.18
A13C G36A	0.26
G22C G42U	0.11
A3G U67G	0.37
U69G U74C	0.38
G46C A64U	0.11
G6A C44U	0.46
U51C G70A	0.47
C17U U48C	0.31
